test system: Plasmodium falciparum; experiment: Antimalarial schizonticidal activity against Plasmodium falciparum 3D7 infected erythrocytes at 2.5 ug/ml after 30-39 hrs; assay type: functional
# inhibition at 2.5 µg/mL values compiled below
Numeric only. Scale: %

Worked cases, inhibition at 2.5 µg/mL given:
- Molecule: "COC(=O)C1=C(Nc2ccc(OC)cc2)CC(c2ccc(OC)cc2)N(c2ccc(OC)cc2)C1c1ccc(OC)cc1 (stereo not drawn)"
  Readout: "inhibition at 2.5 µg/mL"
  Unit symbol: "%"
  Meas value: 90
- Molecule: "CCOC(=O)C1=C(Nc2ccc(OC)cc2)CC(c2ccccc2)N(c2ccc(OC)cc2)C1c1ccccc1 (stereo not drawn)"
  Readout: "inhibition at 2.5 µg/mL"
  Unit symbol: "%"
  Meas value: 100
- Molecule: "COC(=O)C1=C(Nc2ccccc2)CC(c2ccccc2)N(c2ccccc2)C1c1ccccc1 (stereo not drawn)"
  Readout: "inhibition at 2.5 µg/mL"
  Unit symbol: "%"
  Meas value: 100
- Molecule: "COC(=O)C1=C(Nc2ccccc2)CC(c2ccc(Br)cc2)N(c2ccccc2)C1c1ccc(Br)cc1 (stereo not drawn)"
  Readout: "inhibition at 2.5 µg/mL"
  Unit symbol: "%"
  Meas value: 85
- Molecule: "COC(=O)C1=C(Nc2ccc(Cl)cc2)CC(c2ccc(OC)cc2)N(c2ccc(Cl)cc2)C1c1ccc(OC)cc1 (stereo not drawn)"
  Readout: "inhibition at 2.5 µg/mL"
  Unit symbol: "%"
  Meas value: 100

Challenge: # lookup: inhibition at 2.5 µg/mL of COC(=O)C1=C(Nc2ccc(OC)cc2)CC(c2cccs2)N(c2ccc(OC)cc2)C1c1cccs1 (stereo not drawn)
Response given: 100

Challenge: What about this molecule? COC(=O)C1=C(Nc2ccc(Br)cc2)CC(c2ccc(OC)cc2)N(c2ccc(Br)cc2)C1c1ccc(OC)cc1 (stereo not drawn)
Response given: 91

Challenge: What about this molecule? COC(=O)C1=C(Nc2ccc(OC)cc2)CC(c2cccc(Cl)c2)N(c2ccc(OC)cc2)C1c1cccc(Cl)c1 (stereo not drawn)
Response given: 100

Challenge: What about this molecule? CCOC(=O)C1=C(Nc2ccc(OC)cc2)CC(c2cccc(Cl)c2)N(c2ccc(OC)cc2)C1c1cccc(Cl)c1 (stereo not drawn)
Response given: 50

Challenge: What about this molecule? COC(=O)C1=C(Nc2ccc(OC)cc2)CC(c2ccc(F)cc2)N(c2ccc(OC)cc2)C1c1ccc(F)cc1 (stereo not drawn)
Response given: 100

Challenge: What about this molecule? COC(=O)C1=C(Nc2ccccc2)CC(c2cccc(Cl)c2)N(c2ccccc2)C1c1cccc(Cl)c1 (stereo not drawn)
Response given: 81

Challenge: What about this molecule? CCOC(=O)C1=C(Nc2ccccc2)CC(c2ccccc2)N(c2ccccc2)C1c1ccccc1 (stereo not drawn)
Response given: 92

Challenge: What about this molecule? COC(=O)C1=C(Nc2ccccc2)CC(c2ccc(OCc3ccccc3)cc2)N(c2ccccc2)C1c1ccc(OCc2ccccc2)cc1 (stereo not drawn)
Response given: 2

###

test system: Plasmodium falciparum; assay: Antimalarial schizonticidal activity against Plasmodium falciparum 3D7 infected erythrocytes at 1.25 ug/ml after 30-39 hrs; type: functional
Readout: inhibition at 1.25 µg/mL (%)
Numeric only. Scale: %

- Compound: "COC(=O)C1=C(Nc2ccccc2)CC(c2cccc(Cl)c2)N(c2ccccc2)C1c1cccc(Cl)c1 (stereo not given)"
  Unit symbol: "%"
  inhibition at 1.25 µg/mL: 46
- Compound: "COC(=O)C1=C(Nc2ccc(OC)cc2)CC(c2ccc(Br)cc2)N(c2ccc(OC)cc2)C1c1ccc(Br)cc1 (stereo not given)"
  Unit symbol: "%"
  inhibition at 1.25 µg/mL: 33
- Compound: "COC(=O)C1=C(Nc2ccc(Cl)cc2)CC(c2ccc(Br)cc2)N(c2ccc(Cl)cc2)C1c1ccc(Br)cc1 (stereo not given)"
  Unit symbol: "%"
  inhibition at 1.25 µg/mL: 0
- Compound: "COC(=O)C1=C(Nc2ccc(OC)cc2)CC(c2ccc(OC)cc2)N(c2ccc(OC)cc2)C1c1ccc(OC)cc1 (stereo not given)"
  Unit symbol: "%"
  inhibition at 1.25 µg/mL: 86
- Compound: "COC(=O)C1=C(Nc2ccccc2)CC(c2ccccc2)N(c2ccccc2)C1c1ccccc1 (stereo not given)"
  Unit symbol: "%"
  inhibition at 1.25 µg/mL: 100
- Compound: "COC(=O)C1=C(Nc2ccc(OC)cc2)CC(c2ccc(F)cc2)N(c2ccc(OC)cc2)C1c1ccc(F)cc1 (stereo not given)"
  Unit symbol: "%"
  inhibition at 1.25 µg/mL: 100
- Compound: "CCOC(=O)C1=C(Nc2ccc(Cl)cc2)CC(c2ccc(Cl)cc2)N(c2ccc(Cl)cc2)C1c1ccc(Cl)cc1 (stereo not given)"
  Unit symbol: "%"
  inhibition at 1.25 µg/mL: 0
- Compound: "COC(=O)C1=C(Nc2ccc(OC)cc2)CC(c2cccc(Cl)c2)N(c2ccc(OC)cc2)C1c1cccc(Cl)c1 (stereo not given)"
  Unit symbol: "%"
  inhibition at 1.25 µg/mL: 33

Here is the next item to consider.
Challenge: # lookup: inhibition at 1.25 µg/mL of COC(=O)C1=C(Nc2ccc(OC)cc2)CC(c2cccs2)N(c2ccc(OC)cc2)C1c1cccs1 (stereo not given)
Response given: 100
